- reported-conditions: human gut metagenome, 24 h, 2 µM; further: call rule not given here

compound	Bacterial Biotransformation
CN(C/C=C/C#CC(C)(C)C)Cc1cccc2ccccc12	Compound NOT metabolized
CN1CCN2c3ccccc3Cc3ccccc3C2C1 (stereo not given)	Compound metabolized
COc1cc(NC(C)CCCN)c2ncccc2c1.O=P(O)(O)O.O=P(O)(O)O (stereo not given) [PRIMAQUINE PHOSPHATE]	Compound metabolized
CCCCCNC(=N)N/N=C/c1c[nH]c2ccc(OC)cc12.O=C(O)/C=C\C(=O)O [TEGASEROD MALEATE]	Compound NOT metabolized
CC[C@H](C)C(=O)O[C@H]1CCC=C2C=C[C@H](C)[C@H](CC[C@@H]3C[C@@H](O)CC(=O)O3)[C@H]21	Compound metabolized
CCOc1ccc2nc(S(N)(=O)=O)sc2c1 [ETHOXZOLAMIDE]	Compound NOT metabolized
CC1Cc2ccccc2N1NC(=O)c1ccc(Cl)c(S(N)(=O)=O)c1 (stereo not given) [INDAPAMIDE]	Compound NOT metabolized
Br.CN1CCC[C@@H]1Cc1c[nH]c2ccc(CCS(=O)(=O)c3ccccc3)cc12 [ELETRIPTAN HYDROBROMIDE]	Compound metabolized
C#C[C@]1(OC(C)=O)CC[C@H]2[C@@H]3CCC4=C[C@@H](OC(C)=O)CC[C@@H]4[C@H]3CC[C@@]21C [ETHYNODIOL DIACETATE]	Compound metabolized
CCOC(=O)C1=C[C@]2(CC)CCCN3CCc4c(n1c1ccccc41)[C@@H]32	Compound metabolized
CCN(CC)CCOC(=O)C1(C2CCCCC2)CCCCC1	Compound metabolized
CCN(CC)C(=O)C1(c2ccccc2)CC1CN (stereo not given)	Compound NOT metabolized
Nc1nnc(-c2cccc(Cl)c2Cl)c(N)n1	Compound NOT metabolized
CCN(CC)CCNC(=O)c1ccc(NC(C)=O)cc1 [ACECAINIDE]	Compound metabolized
O=P1(N(CCCl)CCCl)NCCCO1 (stereo not given) [CYCLOPHOSPHAMIDE ANHYDROUS]	Compound metabolized
CN(C)C(=O)Oc1cccc([N+](C)(C)C)c1.[Br-] [NEOSTIGMINE BROMIDE]	Compound NOT metabolized
CC(=O)OCC(=O)[C@@]1(OC(C)=O)[C@@H](C)C[C@H]2[C@@H]3C[C@H](F)C4=CC(=O)C=C[C@]4(C)[C@@]3(F)[C@@H](O)C[C@@]21C [DIFLORASONE DIACETATE]	Compound metabolized
N#Cc1ccc2[nH]cc(CCCCN3CCN(c4ccc5oc(C(N)=O)cc5c4)CC3)c2c1	Compound metabolized
CCc1cccc2c3c([nH]c12)C(CC)(CC(=O)O)OCC3 (stereo not given)	Compound metabolized
COc1ccccc1OCCNCC(O)COc1cccc2[nH]c3ccccc3c12 (stereo not given)	Compound metabolized

###

- reported-conditions: human gut metagenome, 24 h, 2 µM
measured-quantity: Bacterial Biotransformation

compound	result
Nc1nc(NC2CC2)c2ncn([C@H]3C=C[C@@H](CO)C3)c2n1.Nc1nc(NC2CC2)c2ncn([C@H]3C=C[C@@H](CO)C3)c2n1.O=S(=O)(O)O [ABACAVIR SULFATE]	Compound NOT metabolized
COc1cc2nc(N3CCN(C(=O)C4COc5ccccc5O4)CC3)nc(N)c2cc1OC.CS(=O)(=O)O (configuration not stated) [DOXAZOSIN MESYLATE]	Compound metabolized
CC[C@@]1(O)C(=O)OCc2c1cc1n(c2=O)Cc2cc3c(CN(C)C)c(O)ccc3nc2-1 [TOPOTECAN]	Compound NOT metabolized
COC(=O)[C@H](c1ccccc1Cl)N1CCc2sccc2C1.O=S(=O)(O)O [CLOPIDOGREL BISULFATE]	Compound metabolized
C=CC[C@@H]1/C=C(\C)C[C@H](C)C[C@H](OC)[C@H]2O[C@@](O)(C(=O)C(=O)N3CCCC[C@H]3C(=O)O[C@H](/C(C)=C/[C@@H]3CC[C@@H](O)[C@H](OC)C3)[C@H](C)[C@@H](O)CC1=O)[C@H](C)C[C@@H]2OC.O [TACROLIMUS]	Compound NOT metabolized
C[C@@H](c1ncncc1F)[C@](O)(Cn1cncn1)c1ccc(F)cc1F [VORICONAZOLE]	Compound metabolized
COc1ccc2cc([C@H](C)C(=O)O)ccc2c1 [NAPROXEN]	Compound NOT metabolized
CC(C)NCC(O)COc1ccc(CC(N)=O)cc1 (configuration not stated) [ATENOLOL]	Compound NOT metabolized
CN[C@H]1CC[C@@H](c2ccc(Cl)c(Cl)c2)c2ccccc21 [SERTRALINE]	Compound NOT metabolized
COc1ccccc1OCCNCC(O)COc1cccc2[nH]c3ccccc3c12 (configuration not stated) [CARVEDILOL]	Compound metabolized
Cc1cc2c(s1)Nc1ccccc1N=C2N1CCN(C)CC1 [OLANZAPINE]	Compound NOT metabolized
CC(=O)OCC(CCn1cnc2cnc(N)nc21)COC(C)=O [FAMCICLOVIR]	Compound metabolized

// provenance: ChEMBL document CHEMBL5724914
